# System: SF-295 CNS
# Protocol Details: NCI tumour cell line growth inhibition, 48 h
Property Label: TGI

I looked up COc1c(Cl)ccc2c(-c3nc4cc(Cl)c(F)cc4s3)cc(=O)oc12 and its TGI for SF-295 CNS was 52 µM

I looked up Cc1c2ccccc2c(C)n2c1nc1ccccc12 and its TGI for SF-295 CNS was 25.3 µM

// molecule CN(Cc1cnc2nc(N)nc(N)c2n1)c1ccc(C(=O)NC(CCC(=O)NC(CC(P(=O)(O)O)P(=O)(O)O)C(=O)O)C(=O)O)cc1 (stereo not drawn) , assay SF-295 CNS, TGI value: > 100 µM

Record CN(CC(=O)O)Cc1oc(CO)cc(=O)c1O ; system SF-295 CNS; TGI = > 100 µM

Lab note: molecule COc1cc2c(cc1OC)[C@@](C)(C(O)C(O)C(C)(C)O)NCC2 (stereo partly drawn) tested on SF-295 CNS; recorded TGI was > 100 µM

Item COC12CCC(C(C(=O)c3ccccc3)=C1C(=O)c1ccccc1)C(O)C2 (stereo not drawn) was tested on SF-295 CNS; the reported TGI is > 100 µM

For Nc1ccc(C(OC(=O)c2cc3ccccc3c(Cc3c(O)c(C(=O)OC(c4ccc(N)cc4)(c4ccc(N)cc4)c4ccc(N)cc4)cc4ccccc34)c2O)(c2ccc(N)cc2)c2ccc(N)cc2)cc1 on SF-295 CNS, measured TGI was > 100 µM

Measured TGI (SF-295 CNS), entry CC(=O)OC(C)(C)CCC(=O)[C@](C)(O)[C@H]1[C@H](O)C[C@@]2(C)[C@@H]3CC=C4C(C)=C(OC5OC(CO)C(O)C(O)C5O)C(=O)C[C@@H]4[C@]3(C)C(=O)C[C@]12C (stereo partly drawn) : > 100 µM
